IC50, Neuraminidase (Influenza B virus (strain B/Lee/1940), UniProt P03474): measured values
Test Readout: IC50 (µM)

{"columns": ["Compound", "Unit Text", "Relation", "Measured Value"],
 "data": [
  ["CCCN(CCC)C(=O)C(NC(C)=O)[C@H]1CC(C(=O)O)C[C@@H]1N=C(N)N (some centres undefined)", "µM", "=", 9.2],
  ["C=CCNC(=O)C(NC(C)=O)[C@H]1CC(C(=O)O)C[C@@H]1N=C(N)N (some centres undefined)", "µM", "=", 4.3],
  ["CC(=O)NC(C(=O)N1CCC(C)CC1)[C@H]1CC(C(=O)O)C[C@@H]1N=C(N)N (some centres undefined)", "µM", "=", 42.5],
  ["CCCCNC(=O)C(NC(C)=O)[C@H]1CC(C(=O)O)C[C@@H]1N=C(N)N (some centres undefined)", "µM", "=", 46.8],
  ["CCCN(C)C(=O)C(NC(C)=O)[C@H]1CC(C(=O)O)C[C@@H]1N=C(N)N (some centres undefined)", "µM", "=", 6.2],
  ["CCCN(CC)C(=O)C(NC(C)=O)[C@H]1CC(C(=O)O)C[C@@H]1N=C(N)N (some centres undefined)", "µM", "=", 7],
  ["CCN(Cc1ccccc1)C(=O)C(NC(C)=O)[C@H]1CC(C(=O)O)C[C@@H]1N=C(N)N (some centres undefined)", "µM", ">", 30],
  ["CC(=O)NC(C(=O)N1CCCCC1)[C@H]1CC(C(=O)O)C[C@@H]1N=C(N)N (some centres undefined)", "µM", "=", 6.9],
  ["CC(=O)NC(C(=O)N1CCCC(C)C1)[C@H]1CC(C(=O)O)C[C@@H]1N=C(N)N (some centres undefined)", "µM", ">", 10],
  ["CC(=O)NC(C(=O)N1CCCCC1C)[C@H]1CC(C(=O)O)C[C@@H]1N=C(N)N (some centres undefined)", "µM", "=", 10.5],
  ["CCCCC(C)NC(=O)C(NC(C)=O)[C@H]1CC(C(=O)O)C[C@@H]1N=C(N)N (some centres undefined)", "µM", "=", 37],
  ["CCN(CC)C(=O)C(NC(C)=O)[C@H]1CC(C(=O)O)C[C@@H]1N=C(N)N (some centres undefined)", "µM", "=", 3],
  ["CC(=O)NC(C(=O)O)[C@@H]1CCC(=C2SCCCS2)C1 (mixture of isomers; form 1)", "µM", "=", 3],
  ["CC(=O)NC(C(=O)NCCc1ccccc1)[C@H]1CC(C(=O)O)C[C@@H]1N=C(N)N (some centres undefined)", "µM", "=", 70.5],
  ["CC(=O)NC(C(=O)N(C)C(C)C)[C@H]1CC(C(=O)O)C[C@@H]1N=C(N)N (some centres undefined)", "µM", "=", 6.8],
  ["CC(=O)NC(C(=O)NC(C)CCc1ccccc1)[C@H]1CC(C(=O)O)C[C@@H]1N=C(N)N (some centres undefined)", "µM", "=", 12.5],
  ["CC(=O)NC(C(=O)O)[C@@H]1CCC(=C2SCCCS2)C1 (mixture of isomers; form 2)", "µM", "=", 3],
  ["CCC1CCCCN1C(=O)C(NC(C)=O)[C@H]1CC(C(=O)O)C[C@@H]1N=C(N)N (some centres undefined)", "µM", "=", 3.1],
  ["CC(=O)NC(C(=O)O)[C@@H]1CCC(=C2SCCCS2)C1 (single isomer, unassigned)", "µM", "=", 8.6]
]}
